Listed below: melting point values for each entry.

See these solved cases before continuing.
Compound String	melting point
O=C(O)CCc1cc2nc(C(F)(F)F)ccc2n1S(=O)(=O)c1ccccc1	180 °C
CC(C)(C)CC(C)(C)c1cc(-n2nc3ccc(S(=O)(=O)c4ccccc4)cc3n2)c(O)c(C(C)(C)c2ccccc2)c1	170 to 171 °C
COCc1nc(C(=O)OC)c(C(=O)OC)[nH]1	93 to 95 °C

Please examine the following record next.
State the recorded melting point for this entry: Cc1ccccc1-c1c(C(=O)N(C)Cc2cc(C(F)(F)F)cc(C(F)(F)F)c2)n(C)c(=O)c2cccnc12
183 to 185 °C

These entries and their values trace back to a melting point compilation (Tetko et al.; mined from patent text by program, amines drawn as free bases though some values may be those of a salt).
